# TARGET_OR_SYSTEM: T1, 14-3-3ζ labelled with NT647-NHS dye (human, UniProt P63104 1-245, NT647-NHS dye (Monolith Protein Labeling Kit RED-NHS); labelled residues not stated)
# T1 construct: Same construct as m1, with the fluorescent dye for MST; also called labeled 14-3-3ζ; source: E. coli BL21 (DE3), pProEX HTb plasmid, purified (Ni2+-NTA), labelled with Monolith Protein Labeling Kit RED-NHS
# T1 sequence (looked up): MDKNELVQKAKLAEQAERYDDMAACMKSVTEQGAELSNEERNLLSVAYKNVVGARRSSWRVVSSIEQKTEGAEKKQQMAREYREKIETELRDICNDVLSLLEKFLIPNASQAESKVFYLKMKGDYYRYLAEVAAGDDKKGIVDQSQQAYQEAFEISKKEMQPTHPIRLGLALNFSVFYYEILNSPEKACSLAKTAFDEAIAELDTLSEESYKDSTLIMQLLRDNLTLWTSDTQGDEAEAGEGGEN
# TEST_NAME: MST; TAZpS89 peptide titrated against a fixed concentration of NT647-labelled 14-3-3ζ; DPBS with 0.05% Tween20, 25 °C; apparent Kd; absence of fragment
# CONDITION_PARAMETERS: both partners purified
Where no end group is shown, it is not given here. [ ]: non-standard residue; d: D form. pS = N[C@@H](COP(=O)(O)O)C(=O)O
READOUT: Kd (nM)
API: value field is a number in nM; no unit string.

Exam item: Consider the binder shown here: QHVRSH[pS]SPASLQ (TAZ-derived peptide surrounding phosphorylated Ser89; The methods of crystallisation say only 'the peptide'; also called TAZ-derived peptide; TAZ peptide; source: synthetic peptide (bought: Caslo, Denmark)) [TAZpS89 peptide] What is its recorded Kd?
Marked response: 1380

Value source: paper PMC11375770
